target.or.system: CDK4:CCND1 (Homo sapiens (Human))
Sequence (P11802 whole entry): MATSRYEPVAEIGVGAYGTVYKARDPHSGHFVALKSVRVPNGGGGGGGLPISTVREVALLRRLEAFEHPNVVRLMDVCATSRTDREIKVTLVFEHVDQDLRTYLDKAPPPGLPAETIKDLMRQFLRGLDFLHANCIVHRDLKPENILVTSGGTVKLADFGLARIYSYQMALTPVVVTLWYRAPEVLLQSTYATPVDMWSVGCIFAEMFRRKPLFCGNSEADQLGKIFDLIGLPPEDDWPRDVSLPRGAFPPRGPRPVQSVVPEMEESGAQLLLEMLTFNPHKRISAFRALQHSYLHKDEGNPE
Sequence (P24385 whole entry partner): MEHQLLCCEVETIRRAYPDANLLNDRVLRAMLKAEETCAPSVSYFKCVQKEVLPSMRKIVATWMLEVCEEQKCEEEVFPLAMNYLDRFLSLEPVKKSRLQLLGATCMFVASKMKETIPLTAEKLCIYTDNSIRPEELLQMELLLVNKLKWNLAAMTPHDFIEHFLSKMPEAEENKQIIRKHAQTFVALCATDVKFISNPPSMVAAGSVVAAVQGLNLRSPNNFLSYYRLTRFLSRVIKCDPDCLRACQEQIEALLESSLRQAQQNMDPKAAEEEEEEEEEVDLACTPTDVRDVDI
protocol.description: NanoBRET assay in MCF-7 cells, CDK4
Format: cell-based
setup.conditions: NanoBRET, transfected MCF-7 cells, 2 hours; n = 1 or average; read-out: CDK4 IC50
pIC50: −log10 of the molar value.
assay.readout: pIC50

CCn1cnc2c(N[C@H]3CCN(S(=O)(=O)CCOC)C3)nc(N[C@@H](CO)C(C)C)nc21 [Example 42] = 5.35

a. CCn1cnc2c(N[C@H]3CCN(S(=O)(=O)NC)C3)nc(N[C@@H]3c4ccccc4C[C@@H]3O)nc21 [Example 51]
b. CCn1cnc2c(N[C@H]3CCN(S(=O)(=O)NC)C3)nc(-c3cccc4c3CC[C@]4(C)O)nc21 (relative stereo) [Example 3]
c. CC[C@H](Nc1nc(N[C@@H]2CN(S(=O)(=O)c3ncc[nH]3)C[C@H]2F)c2ncn(C)c2n1)[C@@H](C)O (relative stereo) [Example 56]
d. CCn1cnc2c(N[C@H]3CCN(S(=O)(=O)CF)C3)nc(N[C@@H](CO)C(C)C)nc21 [Example 43]
Input line: Hi! Can you put these in order of pIC50, lowest number first? Your reply should list the labels following the order given in the request.
Output line: c, b, d, a
